System: E. coli TOP10
Assay type: cell-based
CONDITIONS USED: 0.01% arabinose, end point OD450 after 14 hours, 37 degrees Celsius
Procedure: A range of synthetic antimicrobial polypeptides were expressed in E. coli TOP10 (Invitrogen) using arabinose as inducer, as disclosed in Example 1 of International patent application WO 00/73433 (with minor modifications). […] The percentage of growth inhibition was calculated as the end point OD measurement of each sample divided by the end point OD measurement obtained from cells containing the control vector and multiplied by 100. […]
METRIC NAME: Growth inhibition using 0.01% arabinose (%)
The reply should be a number in %, with the unit left off.

Form field: reported Growth inhibition using 0.01% arabinose (%) of GWLRKIGKAVKKVVKRVL (Synthetic antimicrobial peptide) [SEQ ID NO:34]
90

Could you do the same for GLFRKLRKKVKKVLKHVL (Synthetic antimicrobial peptide) [SEQ ID NO:23] , please?
91

Could you do the same for GILSKLKKAIKRILQDVLRWL (Synthetic antimicrobial peptide) [SEQ ID NO:43] , please?
82

Could you do the same for GLLSKLKKTVKRVVKHVR (Synthetic antimicrobial peptide) [SEQ ID NO:19] , please?
84

###

Tested on: E. coli TOP10
Format: cell-based
CONDITIONS USED: 0.01% arabinose, end point OD450 after 14 hours, 37 degrees Celsius
METRIC NAME: Growth inhibition using 0.01% arabinose (%)
The reply should be a number in %, with the unit left off.

Form field: reported Growth inhibition using 0.01% arabinose (%) of GLLNKLKRALKKVVKHVR (Synthetic antimicrobial peptide) [SEQ ID NO:33]
84

Could you do the same for GLLSMLGKAVKRAVQHVL (Synthetic antimicrobial peptide) [SEQ ID NO:26] , please?
97

Could you do the same for GLLRILKKKAKKALQHIL (Synthetic antimicrobial peptide) [SEQ ID NO:37] , please?
86

Could you do the same for GLLKTIRKKIKRVLKHVR (Synthetic antimicrobial peptide) [SEQ ID NO:4] , please?
96

Could you do the same for GLLNKLKKNVKNIVQHILRWL (Synthetic antimicrobial peptide) [SEQ ID NO:40] , please?
77

Could you do the same for GMLKKLKKKTKRAFSVFCRWL (Synthetic antimicrobial peptide) [SEQ ID NO:44] , please?
96

Could you do the same for GLWRKLRRKAKKVLQHIL (Synthetic antimicrobial peptide) [SEQ ID NO:13] , please?
94

Could you do the same for GLLSKLKRKIKKAVKHIL (Synthetic antimicrobial peptide) [SEQ ID NO:30] , please?
82

Could you do the same for GLLSRLRRATKIILKGIR (Synthetic antimicrobial peptide) [SEQ ID NO:14] , please?
72

Could you do the same for GLVTLLKKAMKNALEDVL (Synthetic antimicrobial peptide) [SEQ ID NO:21] , please?
98

Could you do the same for GLLGKLKRKIKKALEGIR (Synthetic antimicrobial peptide) [SEQ ID NO:35] , please?
96

Could you do the same for GMLRKLKRKVKRTLQHVL (Synthetic antimicrobial peptide) [SEQ ID NO:8] , please?
78

Could you do the same for GLLGKLKKELKNVLEHIYRWL (Synthetic antimicrobial peptide) [SEQ ID NO:42] , please?
75

Could you do the same for GILSKLKKKAKNAVKMFCRWL (Synthetic antimicrobial peptide) [SEQ ID NO:46] , please?
92

Could you do the same for GLWRKLKKALKRAVQGVR (Synthetic antimicrobial peptide) [SEQ ID NO:5] , please?
91

Could you do the same for GILNIIGRAVKTVLESIR (Synthetic antimicrobial peptide) [SEQ ID NO:25] , please?
97

Could you do the same for GMLIKLEMEAKKVVKNVL (Synthetic antimicrobial peptide) [SEQ ID NO:17] , please?
96
